Examples of compounds with documented residual activity follow.
assayed-system: CAMKK2 (human)
protocol-notes: radiometric filter-binding kinase assay, Kinase HotSpot
protocol-conditions: compound 0.5 µM; ATP 10 µM

compound	residual activity [%]
NC(=O)c1ccc(N(C(N)=O)c2c(F)cccc2F)nc1-c1ccc(F)cc1F	101
Nc1n[nH]c2nnc(-c3c(-c4ccccc4)nn4ccccc34)cc12	101
O=C(NC(NC(=S)Nc1ccc(F)c([N+](=O)[O-])c1)C(Cl)(Cl)Cl)C(c1ccccc1)c1ccccc1 (configuration not stated)	126
Cc1cc2ncc(-c3ccccc3)nc2cc1C	91.8
Clc1ccc(Nc2nnc(Cc3ccncc3)c3ccccc23)cc1	100
CC(C)(C)c1nc2c3ccc(F)cc3c3c(=O)[nH]ccc3c2[nH]1	69.4
COc1cc2ncnc(Nc3ccc(F)c(Cl)c3)c2cc1OCCCN1CCOCC1	103
O=c1cc(N2CCNCC2)oc2c(-c3ccccc3)cccc12	83.7
CCCNC(=O)Nc1ccc(Oc2ncnc3cc(OC)c(OC)cc23)cc1Cl	91.5
Oc1ccc(-c2nc(-c3ccc(F)cc3)c(-c3ccncc3)[nH]2)cc1	118
Nc1nc(Nc2ccc(S(N)(=O)=O)cc2)nn1C(=S)Nc1c(F)cccc1F	5.4
C#Cc1cccc(Nc2ncnc3cc(OCCOC)c(OCCOC)cc23)c1	97.1

---

assayed-system: CDK5 CDK5R1 p35 (human) (UniProt Q00535+Q15078)
protocol-notes: radiometric filter-binding kinase assay, Kinase HotSpot
protocol-conditions: compound 0.5 µM; ATP 10 µM
Entries and their residual activity values follow.

molecular-string	residual activity / %
COc1cc2nccc(Oc3ccc(NC(=S)NC(=O)c4ccccc4C)cc3)c2cc1OC	100
O=c1cc(-c2cccc3c2Sc2ccccc2S3)oc(N2CCOCC2)c1	99.5
O=C(Nc1ccc(Cl)cc1)c1ccccc1NCc1ccncc1	90.4
O=C1Nc2ccccc2/C1=C\c1c(Cl)[nH]c2ccccc12	86.7
O=C1Nc2cc(Br)ccc2/C1=C1/Nc2ccccc2/C1=N\O	12.4
Cc1ccc(NC(=O)c2ccc(CN3CCN(C)CC3)cc2)cc1Nc1nc(-c2cccnc2)cs1	100
CCOc1nc(NC(=O)Cc2cc(OC)ccc2OC)cc(N)c1C#N	105
CC(C)n1cnc2c(Nc3cccc(Cl)c3)nc(NCCO)nc21	22.7

---

In this section, each of the compounds is paired with its reported residual activity.
assayed-system: PKN1 (human) (UniProt Q16512)
Sequence (Q16512 whole entry, looked up): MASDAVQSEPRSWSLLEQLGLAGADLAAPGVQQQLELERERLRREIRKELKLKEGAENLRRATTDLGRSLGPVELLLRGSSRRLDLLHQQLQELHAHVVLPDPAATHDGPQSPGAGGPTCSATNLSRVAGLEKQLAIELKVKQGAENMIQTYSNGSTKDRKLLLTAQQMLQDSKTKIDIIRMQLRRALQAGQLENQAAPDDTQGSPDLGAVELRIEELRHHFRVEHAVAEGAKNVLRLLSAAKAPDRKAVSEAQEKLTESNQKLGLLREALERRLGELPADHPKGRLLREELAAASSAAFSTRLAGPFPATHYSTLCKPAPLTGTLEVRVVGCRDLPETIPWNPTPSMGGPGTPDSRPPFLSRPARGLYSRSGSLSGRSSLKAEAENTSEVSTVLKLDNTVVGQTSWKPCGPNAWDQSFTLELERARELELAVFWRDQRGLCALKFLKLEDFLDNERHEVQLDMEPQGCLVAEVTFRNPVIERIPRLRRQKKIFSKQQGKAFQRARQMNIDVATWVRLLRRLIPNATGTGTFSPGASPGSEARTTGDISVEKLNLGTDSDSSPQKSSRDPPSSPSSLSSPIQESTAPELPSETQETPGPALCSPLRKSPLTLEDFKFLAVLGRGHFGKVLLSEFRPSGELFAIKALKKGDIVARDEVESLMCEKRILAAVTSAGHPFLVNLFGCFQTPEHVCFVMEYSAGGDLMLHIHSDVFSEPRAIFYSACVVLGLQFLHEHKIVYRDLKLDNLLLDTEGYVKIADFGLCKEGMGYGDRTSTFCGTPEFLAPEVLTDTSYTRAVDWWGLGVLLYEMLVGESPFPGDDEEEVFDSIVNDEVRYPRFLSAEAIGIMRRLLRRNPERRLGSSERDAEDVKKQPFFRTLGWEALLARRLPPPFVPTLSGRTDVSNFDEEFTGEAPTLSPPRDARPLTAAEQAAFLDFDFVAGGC
protocol-notes: radiometric filter-binding kinase assay, Kinase HotSpot
protocol-conditions: compound 0.5 µM; ATP 10 µM

compound	readout-unit	residual activity
O=C(NC(NC(=S)Nc1ccc(F)c([N+](=O)[O-])c1)C(Cl)(Cl)Cl)C(c1ccccc1)c1ccccc1 (stereo unspecified)	%	92.8
O=C(Nc1ccc(Cl)cc1)c1ccccc1NCc1ccncc1	%	95.2
Clc1ccc(Nc2nnc(Cc3ccncc3)c3ccccc23)cc1	%	95.9
CCCNC(=O)Nc1ccc(Oc2ncnc3cc(OC)c(OC)cc23)cc1Cl	%	99.1
O=c1cc(-c2cccc3c2Sc2ccccc2S3)oc(N2CCOCC2)c1	%	94.4
Oc1ccc(-c2nc(-c3ccc(F)cc3)c(-c3ccncc3)[nH]2)cc1	%	78.9

---

assayed-system: BLK (human) (UniProt P51451)
Sequence (P51451 whole entry, looked up): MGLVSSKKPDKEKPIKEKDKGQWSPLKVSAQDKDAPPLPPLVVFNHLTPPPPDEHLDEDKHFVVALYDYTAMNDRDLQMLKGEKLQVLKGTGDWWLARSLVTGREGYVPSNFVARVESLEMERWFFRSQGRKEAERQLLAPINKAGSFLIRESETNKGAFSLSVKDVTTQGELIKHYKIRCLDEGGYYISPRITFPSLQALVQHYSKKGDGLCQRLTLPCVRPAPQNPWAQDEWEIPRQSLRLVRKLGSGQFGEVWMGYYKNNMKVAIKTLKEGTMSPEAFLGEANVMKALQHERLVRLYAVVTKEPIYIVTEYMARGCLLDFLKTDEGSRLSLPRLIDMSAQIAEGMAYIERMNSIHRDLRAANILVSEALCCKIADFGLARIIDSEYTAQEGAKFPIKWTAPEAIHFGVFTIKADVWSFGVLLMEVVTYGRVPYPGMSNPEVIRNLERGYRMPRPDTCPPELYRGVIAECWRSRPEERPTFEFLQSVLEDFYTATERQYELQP
protocol-notes: radiometric filter-binding kinase assay, Kinase HotSpot
protocol-conditions: compound 0.5 µM; ATP 10 µM
Items are presented alongside their recorded residual activity.

molecular-string	assayed-system	residual activity, %
COc1cc2ncnc(Nc3ccc(F)c(Cl)c3)c2cc1OCCCN1CCOCC1	BLK (human) (UniProt P51451)	87.7
Nc1nc(Nc2ccc(S(N)(=O)=O)cc2)nn1C(=O)c1c(F)cccc1F	BLK (human) (UniProt P51451)	90.1
Clc1ccc(Nc2nnc(Cc3ccncc3)c3ccccc23)cc1	BLK (human) (UniProt P51451)	105
NC(=O)c1ccc(N(C(N)=O)c2c(F)cccc2F)nc1-c1ccc(F)cc1F	BLK (human) (UniProt P51451)	100
O=C1Nc2ccccc2/C1=C\c1c(Cl)[nH]c2ccccc12	BLK (human) (UniProt P51451)	95.4
O=C1Cc2c([nH]c3ccc([N+](=O)[O-])cc23)-c2ccccc2N1	BLK (human) (UniProt P51451)	94.2
Cc1ccc(NC(=O)c2ccc(CN3CCN(C)CC3)cc2)cc1Nc1nc(-c2cccnc2)cs1	BLK (human) (UniProt P51451)	57.5
Nc1n[nH]c2nnc(-c3c(-c4ccccc4)nn4ccccc34)cc12	BLK (human) (UniProt P51451)	98.1
CC(C)[C@H](CO)Nc1nc(Nc2cccc(Cl)c2)c2ncn(C(C)C)c2n1	BLK (human) (UniProt P51451)	68.8
C#Cc1cccc(Nc2ncnc3cc(OCCOC)c(OCCOC)cc23)c1	BLK (human) (UniProt P51451)	79.4
